// provenance: PubChem BioAssay (NCI)

Test system: SNB-19 CNS
method.summary: NCI-60 one-dose screen, 48 h (100 = growth as untreated, 0 = no growth, -100 = all killed)
particulars: 10 µM unless noted
Compounds without any hit were thinned out: in the full panel of roughly 83,000, 20% have a hit. Active and inactive are the calls of the source. How the source made its calls: active means growth percent below 10; inactive means the rest.
Documented growth across a set of molecules

Here is how some molecules turned out for growth.
molecule | result.value
COc1cc(/C=C/C(=O)c2cc(OC)c(OC)c(OC)c2)ccc1Oc1nc2c(c(=O)n(C)c(=O)n2C)n1C | 18.7% (inactive)
Cc1c2cnccc2c(C)c2c1c1cc(CO)ccc1n2C | -22.2% (active)
CNC(=O)c1cc(Oc2ccc3c(c2)sc2nc(-c4ccc(Cl)c(C(F)(F)F)c4)cn23)ccn1 | 77.2% (inactive)
c1ccc(Nc2nc3c(s2)CCc2c[nH]cc2-3)nc1 | 100% (inactive)
CCCCCCCCCCCCCCCCCCOc1ccccc1CC(=O)NCC[N+](C)(C)C | 12.5% (inactive)
Cc1ccc(S(=O)(=O)N2CCCN(c3nc(-c4ccccc4)nc4nc(-c5ccccc5)oc34)CC2)cc1 | 102% (inactive)
CCOC(=O)C1=C(CCl)N(C)C(=O)NC1c1ccc2c(c1)OCO2 (stereo not given) | 84.5% (inactive)
Brc1ccc(Nc2nc(Nc3cnc4ccccc4c3)c3[nH]cnc3n2)cc1 | 93.6% (inactive)
O=C1CCCC1[n+]1ccccc1 (stereo not given) | 103% (inactive)

API: the following record is the query input.
Give the reported growth for CCN1C(=O)N(CC)C2C1NN=c1s/c(=C\c3ccc(OC)cc3)c(=O)n12 (stereo not given) (system: SNB-19 CNS). 26.9% (inactive)
